B1: glmS ribozyme (parent)
chain: AUAAAAGCGCCAGAACUACAGAAAUGUAGUUGACGAGGAGGAGGUUUAUCGAAUUUUCGGCGGAUGCCUCCAAA

Variants of: B1
Assay: self-cleavage kobs at 2500 uM GlcN6P; higher = faster cleavage; RNA array
Settings: with glucosamine-6-phosphate
This sample holds only a part of the variants without activity.
parameter_measured: self-cleavage kobs at 2500 uM GlcN6P (s⁻¹)
Answers are plain numbers, in s⁻¹.

Give me self-cleavage kobs at 2500 uM GlcN6P for each of these variants, listed below.
1. G13C A14G A42G
2. A12U A39U
3. A14C A36C G51U C61A G63U C67U
4. G29C A33G A53U A64G U69G
5. C11A U56A C67G
6. U55C G59A
7. A12U C16A
8. G37C A42G

1: 0.000379; 2: 0.00925; 3: 5.16e-05; 4: 0.000129; 5: 5.5e-05; 6: 3.74e-05; 7: 0.00417; 8: 4.76e-05

Give me self-cleavage kobs at 2500 uM GlcN6P for each of these variants, listed below.
1. U46G U55C G66A
2. C58U C61G G66U

1. 0.00233
2. 6.41e-05
